# Species on record: Rattus norvegicus
# test_description: Stabilization of rat DNA polymerase binding to DNA by gel mobility assay
Recorded Activity for the following compounds

IN: Record request: Activity value, item "CC(=O)OC[C@]1(C)[C@@H]2CC[C@]3(C)/C(=C(C)/C=C/C=C(\C)[C@H](CC=C(C)C)OC(C)=O)C(=O)C[C@H]3[C@@]2(C)CC[C@H]1OC(C)=O"
OUT: 23%

IN: // repeat for CC(C)=C/C=C/C(C)=C/C=C/C(C)=C1\C(=O)C[C@H]2[C@@]3(C)CC[C@@H](O)[C@](C)(CO)[C@@H]3CC[C@]12C [STELLETTIN J] and report
OUT: 8%

IN: // repeat for CC(=O)O[C@@H]1CC[C@@]2(C)[C@@H](CC[C@]3(C)/C(=C(C)/C=C/C=C(\C)C(CC=C(C)C)O[C@@H]4OC[C@@H](O)[C@@H](O)[C@H]4O)C(=O)C[C@@H]23)C1(C)C (some centres undefined) [STELLIFERIN RIBOSIDE] and report
OUT: 29%
